- tested_on: HLA-A*30:02
- method_summary: IEDB peptide-MHC binding, purified MHC/competitive/radioactivity; filed as Kd, often an IC50 or EC50 that approximates it; bounds were set here for any values at or beyond the usual limits of such assays
- recorded_conditions: source organism: Mammarenavirus machupoense
measurement_type: pKd
# pKd is unitless: minus log10 of the molar concentration; print number only

Entry LCEEGKVCY has what pKd?
4.85

====

- tested_on: HLA-B*15:01
- method_summary: IEDB peptide-MHC binding, purified MHC/competitive/fluorescence; filed as Kd, often an IC50 or EC50 that approximates it; bounds were set here for any values at or beyond the usual limits of such assays
- recorded_conditions: source organism: Orthohantavirus sinnombreense
pKd: −log10 of the molar value.
measurement_type: pKd

I have this sequence here, LVTARQKLK , and I need its recorded pKd.
≤ 4.70

====

- tested_on: HLA-A*01:01
- method_summary: IEDB peptide-MHC binding, purified MHC/direct/fluorescence; filed as Kd, often an IC50 or EC50 that approximates it; bounds were set here for any values at or beyond the usual limits of such assays
- recorded_conditions: source organism: Shewanella violacea
measurement_type: Kd

May I ask what Kd has been recorded for ETKGKRRLL ?
≥ 20 µM

====

- tested_on: HLA-A*23:01
- method_summary: IEDB peptide-MHC binding, purified MHC/competitive/radioactivity; filed as Kd, often an IC50 or EC50 that approximates it; bounds were set here for any values at or beyond the usual limits of such assays
- recorded_conditions: source organism: Dengue virus 2 Jamaica/1409/1983
measurement_type: pKd
Worth noting: pKd values are minus log10 of concentrations stated in mol/L.

Take a look at these entries with their results.
MYFHRRDLRL: 7.24
TWSIHAKHEW: 5.71

Attention now turns to another entry.
Query (sequence): NYADRRWCF ; field requested: pKd
7.30

====

- tested_on: HLA-B*58:01
- method_summary: IEDB peptide-MHC binding, purified MHC/competitive/fluorescence; filed as Kd, often an IC50 or EC50 that approximates it; bounds were set here for any values at or beyond the usual limits of such assays
- recorded_conditions: source organism: Yersinia pestis Nepal516
pKd: −log10 of the molar value.
measurement_type: pKd

Query: pKd; subject: YMYDFILRF
≤ 4.70

====

Overview of recorded Kd for various sequences
- tested_on: HLA-B*35:01
- method_summary: IEDB peptide-MHC binding, purified MHC/competitive/radioactivity; filed as Kd, often an IC50 or EC50 that approximates it; bounds were set here for any values at or beyond the usual limits of such assays
- recorded_conditions: source organism: Mammarenavirus choriomeningitidis
In your response, the unit should come after the numeric value.

MPSEDGAEDL: 148 nM

Then there is this sequence:
Give the measured Kd of LPIFSDAAL .
13.3 nM

====

- tested_on: HLA-A*02:12
- method_summary: IEDB peptide-MHC binding, purified MHC/direct/fluorescence; filed as Kd, often an IC50 or EC50 that approximates it; bounds were set here for any values at or beyond the usual limits of such assays
- recorded_conditions: source organism: Yersinia pestis CA88-4125
measurement_type: Kd

Please give the measured Kd for this sequence: KLLARFLFE
≥ 20 µM

====

- tested_on: HLA-B*15:42
- method_summary: IEDB peptide-MHC binding, purified MHC/competitive/fluorescence; filed as Kd, often an IC50 or EC50 that approximates it; bounds were set here for any values at or beyond the usual limits of such assays
- recorded_conditions: source organism: Francisella tularensis subsp. tularensis FSC198
measurement_type: Kd

Request - read-out Kd | tested on HLA-B*15:42 | sequence MGAGLVFPI
≥ 5 µM

====

- tested_on: HLA-A*31:01
- method_summary: IEDB peptide-MHC binding, purified MHC/direct/fluorescence; filed as Kd, often an IC50 or EC50 that approximates it; bounds were set here for any values at or beyond the usual limits of such assays
- recorded_conditions: source organism: Giardia lamblia ATCC 50803
measurement_type: pKd
Scale explanation: pKd corresponds to minus log10 of a concentration expressed in moles per litre.

I'd like to know its pKd. The sequence in question is RIGGVLIFR
7.96

====

- tested_on: HLA-B*40:01
- method_summary: IEDB peptide-MHC binding, purified MHC/competitive/fluorescence; filed as Kd, often an IC50 or EC50 that approximates it; bounds were set here for any values at or beyond the usual limits of such assays
- recorded_conditions: source organism: Bacillus anthracis str. A0488
measurement_type: Kd

What does the record list as Kd for FVMPIFEQI ?
≥ 5 µM

====

- tested_on: HLA-A*02:12
- method_summary: IEDB peptide-MHC binding, purified MHC/direct/fluorescence; filed as Kd, often an IC50 or EC50 that approximates it; bounds were set here for any values at or beyond the usual limits of such assays
- recorded_conditions: source organism: Yersinia enterocolitica subsp. enterocolitica 8081
pKd: −log10 of the molar value.
measurement_type: pKd

I'd like to know its pKd. The sequence in question is LAYLAGWII
≤ 4.70

====

- tested_on: HLA-A*01:01
- method_summary: IEDB peptide-MHC binding, purified MHC/direct/fluorescence; filed as Kd, often an IC50 or EC50 that approximates it; bounds were set here for any values at or beyond the usual limits of such assays
- recorded_conditions: source organism: SARS-CoV1
pKd: −log10 of the molar value.
measurement_type: pKd

Hi! What's the reported pKd for KSYEHQTPF on HLA-A*01:01?
≤ 4.57

====

- tested_on: HLA-B*44:02
- method_summary: IEDB peptide-MHC binding, purified MHC/competitive/radioactivity; filed as Kd, often an IC50 or EC50 that approximates it; bounds were set here for any values at or beyond the usual limits of such assays
- recorded_conditions: source organism: Mammarenavirus machupoense
Reported Kd values for a set of sequences
Express the result in µM but write the number alone.

EELSLMYETL: 1.54

Now consider the entry below.
So what's the measured Kd for this one? KEINFLSQT
16.1

====

- tested_on: HLA-A*26:01
- method_summary: IEDB peptide-MHC binding, purified MHC/direct/fluorescence; filed as Kd, often an IC50 or EC50 that approximates it; bounds were set here for any values at or beyond the usual limits of such assays
- recorded_conditions: source organism: Yersinia pestis CA88-4125
measurement_type: Kd

Reported Kd for KLLARFLFE : what is it?
≥ 20 µM

====

- tested_on: HLA-A*02:03
- method_summary: IEDB peptide-MHC binding, purified MHC/direct/fluorescence; filed as Kd, often an IC50 or EC50 that approximates it; bounds were set here for any values at or beyond the usual limits of such assays
- recorded_conditions: source organism: Limestone Canyon virus
pKd: −log10 of the molar value.
measurement_type: pKd

// pKd lookup, key: LVTARQKLK
≤ 4.70

====

- tested_on: HLA-B*39:01
- method_summary: IEDB peptide-MHC binding, purified MHC/competitive/fluorescence; filed as Kd, often an IC50 or EC50 that approximates it; bounds were set here for any values at or beyond the usual limits of such assays
- recorded_conditions: source organism: Lechiguanas virus
pKd: −log10 of the molar value.
measurement_type: pKd

Can you share its pKd? I mean this sequence: AMPKTIYEL
≤ 4.70

====

- tested_on: HLA-C*14:02
- method_summary: IEDB peptide-MHC binding, purified MHC/direct/fluorescence; filed as Kd, often an IC50 or EC50 that approximates it; bounds were set here for any values at or beyond the usual limits of such assays
- recorded_conditions: source organism: SARS-CoV1
measurement_type: Kd (nM)
# unit: nM | format: bare number

What does the data say about its Kd? Entry: KSYEHQTPF
93

====

- tested_on: HLA-B*57:01
- method_summary: IEDB peptide-MHC binding, purified MHC/direct/fluorescence; filed as Kd, often an IC50 or EC50 that approximates it; bounds were set here for any values at or beyond the usual limits of such assays
- recorded_conditions: source organism: Giardia lamblia ATCC 50803
measurement_type: pKd
pKd (log units): -log10 of the concentration in mol/L.

Could you tell me which pKd is on file for KAMSTPFSL ?
7.07

====

- tested_on: HLA-B*15:01
- method_summary: IEDB peptide-MHC binding, purified MHC/competitive/fluorescence; filed as Kd, often an IC50 or EC50 that approximates it; bounds were set here for any values at or beyond the usual limits of such assays
- recorded_conditions: source organism: Choclo virus
measurement_type: Kd

What Kd value was documented for this sequence, LPSSSSYSY ?
≥ 20 µM

====

// reported pKd for each item listed
- tested_on: HLA-A*03:01
- method_summary: IEDB peptide-MHC binding, purified MHC/competitive/radioactivity; filed as Kd, often an IC50 or EC50 that approximates it; bounds were set here for any values at or beyond the usual limits of such assays
- recorded_conditions: source organism: Mammarenavirus machupoense
// returns pKd (minus log10 of molar concentration), number only

EWIEFTNFK: 5.02

Next sequence, pKd to be filled in.
# lookup: pKd of LTMQRLLANH
6.06
